Test system: SF-268 CNS
Test: NCI-60 one-dose screen, 48 h (100 = growth as untreated, 0 = no growth, -100 = all killed)
Conditions: 10 µM unless noted
About 83,000 compounds went through this panel and 20% of them were active in at least one assay; those are over-represented in the sample as a whole.
Quick rule for you: growth at 60% or higher means Y, lower means N.

COc1c(N2CC3CCCNC3C2)c(F)cc2c(=O)c(C(=O)N/N=C/c3ccccc3)cn(C3CC3)c12 (configuration not stated): Y

With those in mind, consider the next compound.
Q: Please check the record CN1CCN(Cc2ccc(NC(=O)c3cncc(C#Cc4cnc5ccc(OCC(C)(C)O)nn45)c3)cc2C(F)(F)F)CC1 and state if its growth is at or above 60%.
A: N

---

Tested on: SF-539 CNS
Experiment: NCI-60 one-dose screen, 48 h (100 = growth as untreated, 0 = no growth, -100 = all killed)
Settings: 10 µM unless noted
About 83,000 compounds went through this panel and 20% of them were active in at least one assay; those are over-represented in the sample as a whole.
Each entry below carries its recorded growth.
Report the value in % with no unit label.

C#C[C@]1(O)CC[C@H]2[C@@H]3CC=C4c5sc(-c6ccc(C)cc6)nc5CC[C@]4(C)[C@H]3CC[C@@]21C: -47.7
COc1cc(-c2nn(C(C)(C)C)cc2-c2ccnc(NCCCNS(=O)(=O)c3ccc(Cl)cc3)n2)ccc1Cl: 84.4

Q: API: value(readout=growth, system=SF-539 CNS) for record COc1ccc(/C(N)=N/C(N)=N/c2nc3ccccc3s2)cc1
A: 90.5

Q: API: value(readout=growth, system=SF-539 CNS) for record CNC(=O)c1cc(-n2ccc3cc(NC(=O)Nc4ccc(N5CCOCC5)c(C(F)(F)F)c4)ccc32)ccn1
A: 23.3

Q: API: value(readout=growth, system=SF-539 CNS) for record CCn1c(SCC(=O)Nc2cccc(C(=O)/C=C/c3ccc(Br)cc3)c2)nc2ccccc2c1=O
A: 91.4

Q: API: value(readout=growth, system=SF-539 CNS) for record C=C(C)[C@@H]1CC[C@]2(C(=O)NCCCCCN(CCC#N)CCC#N)CC[C@]3(C)[C@H](CC[C@@H]4[C@@]5(C)CCC(=O)C(C)(C)[C@@H]5CC[C@]43C)[C@@H]12
A: 101

Q: API: value(readout=growth, system=SF-539 CNS) for record COc1ccc(NC(=O)CSc2nnc(-c3ccc4nc(-c5ccc(OC)c(OC)c5)[nH]c4c3)o2)cc1OC
A: 93.3

---

Each entry below carries its recorded growth.
Tested on: CCRF-CEM leukemia
Assay: NCI-60 one-dose screen, 48 h (100 = growth as untreated, 0 = no growth, -100 = all killed)
Settings: 10 µM unless noted
Compounds without any hit were thinned out: in the full panel of roughly 83,000, 20% have a hit.
Report the value in % with no unit label.

COc1cc(OC)cc(C(=O)Nc2sc3c(c2C(N)=O)CCC(=O)C3)c1: 8.55
O=C(CSc1nc2ccccc2c(=O)n1-c1ccccc1)Nc1ccc(-c2nc3ccc([N+](=O)[O-])cc3[nH]2)cc1: 22.1

Let us examine a further case.
Q: Entry C=C(C=O)[C@@H]1CC[C@]2(C)[C@H](C(=O)C=C3[C@H]4C[C@](C)(C(=O)OC)CC[C@]4(C)CC[C@]32C)[C@@]1(C)CCC#N : reported growth = ?
A: 10.2

Source listed as PubChem BioAssay (NCI).
